- tgt: T1, Claudin 18.2 (CLDN18.2), expressed on CHOS-CLDN 18.2 / HEK293-CLDN 18.2 / HCC827-CLDN 18.2 cells (human, UniProt P56856-2 1-261)
- T1 construct: whole, on cells; The species is not repeated for the CHOS-CLDN 18.2 cells; also called claudin-18A2
- protocolNotes: FACS, CHOS-CLDN18.2 cells
Property: EC50; scope: individual binders
Reply numerically in µg/mL, unit not repeated.

// solved cases for EC50 follow
binder="QP207208 (antibody, human IgG1, V domains shown, Chimeric; also called 51A3; mouse-derived chimeric antibody QP207208) VH: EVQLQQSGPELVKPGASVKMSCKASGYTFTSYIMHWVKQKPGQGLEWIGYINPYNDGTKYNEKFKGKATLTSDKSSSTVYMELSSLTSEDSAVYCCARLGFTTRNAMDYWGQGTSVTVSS VL: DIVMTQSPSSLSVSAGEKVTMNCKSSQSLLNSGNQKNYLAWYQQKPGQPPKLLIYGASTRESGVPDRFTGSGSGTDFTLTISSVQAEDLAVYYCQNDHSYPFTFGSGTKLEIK" quantitativereadout=0.267
binder="QP14631461 (antibody, human IgG1, kappa, V domains shown, also called QP14611463) VH: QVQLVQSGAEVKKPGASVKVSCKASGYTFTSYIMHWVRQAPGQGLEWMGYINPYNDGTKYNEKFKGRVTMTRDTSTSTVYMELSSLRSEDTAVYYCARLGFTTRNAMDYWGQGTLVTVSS VL: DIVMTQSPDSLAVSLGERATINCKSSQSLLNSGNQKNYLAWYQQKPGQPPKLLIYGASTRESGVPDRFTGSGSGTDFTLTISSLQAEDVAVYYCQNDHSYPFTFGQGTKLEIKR" quantitativereadout=0.156

For the next question, use this binder.
EC50 lookup needed for QP14641460 (antibody, human IgG1, kappa, V domains shown, Humanized from QP207208) VH: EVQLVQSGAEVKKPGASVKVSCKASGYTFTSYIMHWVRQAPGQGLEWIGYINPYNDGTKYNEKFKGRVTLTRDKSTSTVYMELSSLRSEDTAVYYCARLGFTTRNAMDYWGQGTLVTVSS VL: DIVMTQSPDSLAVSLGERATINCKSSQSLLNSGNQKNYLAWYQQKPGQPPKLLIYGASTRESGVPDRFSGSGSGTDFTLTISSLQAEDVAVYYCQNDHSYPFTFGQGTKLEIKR , thanks.
0.0936
